Test system: SARS-CoV-2 variant B.1.351
Experiment: microbe, parasite or virus in culture
Type: cell-based
Details: Severe acute respiratory syndrome coronavirus 2, Vero C1008, 48 h
Measured Quantity: IC50

>>> df
                                   molecule           target_under_test  measured_quantity  value_measured
0  N#C[C@@]1(c2ccc3c(N)ncnn23)O[C@H](COC(=O)c2ccccc2)[C@@H](O)[C@H]1O [ATV013]  SARS-CoV-2 variant B.1.351               IC50         2430 nM
1  CC(C)C(=O)OC[C@H]1O[C@@](C#N)(c2ccc3c(N)ncnn23)[C@H](O)[C@@H]1O [ATV006]  SARS-CoV-2 variant B.1.351               IC50         1130 nM
2  CCCCCCCCC(=O)OC[C@H]1O[C@@](C#N)(c2ccc3c(N)ncnn23)[C@H](O)[C@@H]1O [ATV010]  SARS-CoV-2 variant B.1.351               IC50         1000 nM
3  CC(C)(C)C(=O)OC[C@H]1O[C@@](C#N)(c2ccc3c(N)ncnn23)[C@H](O)[C@@H]1O [ATV018]  SARS-CoV-2 variant B.1.351               IC50          785 nM
4  CCCC(=O)OC[C@H]1O[C@@](C#N)(c2ccc3c(N)ncnn23)[C@H](O)[C@@H]1O [ATV009]  SARS-CoV-2 variant B.1.351               IC50         1380 nM
5  CC(C)CC(=O)OC[C@H]1O[C@@](C#N)(c2ccc3c(N)ncnn23)[C@H](O)[C@@H]1O [ATV017]  SARS-CoV-2 variant B.1.351               IC50         2850 nM
6  CCC(CC)C(=O)OC[C@H]1O[C@@](C#N)(c2ccc3c(N)ncnn23)[C@H](O)[C@@H]1O [ATV011]  SARS-CoV-2 variant B.1.351               IC50         2300 nM
